Taken from patent US4294833A.

Tested on: CaCl2-induced plasma coagulation
test description: Anticoagulant activity on PRP, Hartert's thromboelastograph
Type: in vivo, New Zealand rabbits
test settings: Oryctolagus cuniculus, ip, percent increase of total time for coagulum formation (r+k) vs before treatment; 25 mg/kg intraperitoneal, rabbits; read-out: anticoagulant activity (AC)
measured parameter: change in vivo at 25 mg/kg (%)
Answers are plain numbers, in %.

Worked examples, 7 compounds total:
- compound: "C=CCOc1ccc(C(=O)NCc2cccnc2)cc1C(=O)NCc1cccnc1 [Example 7]"
  change in vivo at 25 mg/kg [%]: 14.5
- compound: "CC(C)CCOc1ccc(C(=O)NCc2cccnc2)cc1C(=O)NCc1cccnc1 [Example 13]"
  change in vivo at 25 mg/kg [%]: 24.5
- compound: "COc1cc(C(=O)NCc2cccnc2)cc(C(=O)NCc2cccnc2)c1O [Example 33]"
  change in vivo at 25 mg/kg [%]: 11.2
- compound: "O=C(NCc1cccnc1)c1cc(Cl)c(O)c(C(=O)NCc2cccnc2)c1 [Example 32]"
  change in vivo at 25 mg/kg [%]: 11.8
- compound: "C=C(C)COc1ccc(C(=O)N(Cc2cccnc2)C(C)C)cc1C(=O)N(Cc1cccnc1)C(C)C [Example 56]"
  change in vivo at 25 mg/kg [%]: 18.6
- compound: "COc1cc(C(=O)NCc2cccnc2)cc(C(=O)NCc2cccnc2)c1OC1CCC1 [Example 19]"
  change in vivo at 25 mg/kg [%]: 15.6
- compound: "CC=COc1c(Cl)cc(C(=O)N(Cc2cccnc2)C(C)(C)CC)cc1C(=O)N(Cc1cccnc1)C(C)(C)CC [Example 47]"
  change in vivo at 25 mg/kg [%]: 12.8

Reported change in vivo at 25 mg/kg ( C=CCOc1ccc(C(=O)NCc2ccncc2)cc1C(=O)NCc1ccncc1 [Example 61] ) = 15.6
